The values you see were collected from patent US20240317764A1.

assay_summary: physchem
test_context: acetone, 26 °C, organic solvent or mixture, thermodynamic from solid
Structures can show the parent of a compound that is named as a salt.
value_type: solubility

> print(dat)
                                   compound   assay.value
1  CCOc1cccc(-c2nc3ncc(NS(C)(=O)=O)nc3n2-c2c(OC)cccc2OC)n1 [Compound I choline salt Form A]  < 2400 µg/mL

====

assay_summary: physchem
test_context: MeOH/DCM (1:19), 26 °C, organic solvent or mixture, thermodynamic from solid
Where a name gives a salt, the structure may show the parent alone.
value_type: solubility

> print(dat)
                                   compound   assay.value
1  CCOc1cccc(-c2nc3ncc(NS(C)(=O)=O)nc3n2-c2c(OC)cccc2OC)n1 [Compound I choline salt Form A]  > 38.6 mg/mL
